- Tested On: IL-17A(FLAG-Tagged): IL-17RA(His-Tagged) (Homo sapiens, UniProt Q16552, K93Q)
- Sequence (Q16552 with tags, fused parts or gaps K93Q): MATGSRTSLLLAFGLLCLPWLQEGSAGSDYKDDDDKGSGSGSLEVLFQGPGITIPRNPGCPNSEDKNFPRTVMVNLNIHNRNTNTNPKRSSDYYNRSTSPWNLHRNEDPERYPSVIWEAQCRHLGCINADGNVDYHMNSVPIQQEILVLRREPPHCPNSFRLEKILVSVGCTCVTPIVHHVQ
- Assay Method Text: IL-17A(FLAG-Tagged): IL-17RA(His-Tagged) Binding Disruption Eu-HTRF Assay
- Experimental Setup: IL-17A/IL-17RA binding disruption, simple average if tested more than once
pIC50: −log10 of the molar value.
Endpoint Name: pIC50

[2H]C([2H])([2H])C([2H])([2H])n1nccc1C(=O)N[C@H](c1cn2ncc(C(COC)NC(=O)CC3CC(F)(F)C3)cc2n1)C1CCC(F)(F)CC1 (single isomer, unassigned) [Example 522] ... 5.66
O=C(CCC(F)(F)F)N[C@@H](c1cnn2cc([C@@H](NC(=O)c3cc(C4CC4)ccn3)C3CCC(F)(F)CC3)nc2c1)C1CC1 ... 6.96
CC(C)n1nccc1C(=O)N[C@H](c1cn2ncc([C@H](NC(=O)C[C@@](C)(O)C(F)(F)F)C3CC3)cc2n1)C1CCC(F)(F)CC1 (relative stereo) ... 6.66
Cc1nonc1C(=O)N[C@H](c1cn2ncc([C@H](NC(=O)C(F)CC3CC3)C3CC3)cc2n1)C1CCC(F)(F)CC1 (single isomer, unassigned) [Example 345] ... 6.74
Cc1nonc1C(=O)N[C@H](c1cn2ncc([C@H](NC(=O)CCCF)C3CC3)cc2n1)C1CCC(F)(F)CC1 ... 6.19
CC(C)c1oncc1C(=O)N[C@H](c1cn2ncc([C@H](NC(=O)CCC(F)(F)F)C3CC3)cc2n1)C1CCC(F)(F)CC1 [Example 89] ... 7.37
CC(C)n1nccc1C(=O)N[C@H](c1cn2ncc(C(CC#N)NC(=O)CC3CC(F)(F)C3)cc2n1)C1CCC(F)(F)CC1 (single isomer, unassigned) [Example 447] ... 6.52
Cc1nonc1C(=O)N[C@H](c1cn2ncc(C(C)NC(=O)CCC(F)(F)F)cc2n1)C1CCC(F)(F)CC1 (single isomer, unassigned) [Example 505] ... 5.27

1 = CC1(C(=O)N[C@H](c2cn3ncc([C@H](NC(=O)CCC(F)(F)F)C4CC4)cc3n2)C2CCC(F)(F)CC2)CC1(F)F (some centres unmarked)
2 = O=C(CCC(F)(F)F)N[C@@H](c1cnn2cc([C@@H](NC(=O)c3cnnn3CCC(F)F)C3CCC(F)(F)CC3)nc2c1)C1CC1
3 = COc1cncc(C(=O)N[C@H](c2cn3ncc([C@H](NC(=O)CCC(F)(F)F)C4CC4)cc3n2)C2CCC(F)(F)CC2)c1
Parameters: sort_field (pIC50), sort_dir (desc). Give your ranking as a list of the labels in the requested order.
2, 3, 1
(2: 7.02, 3: 6.64, 1: 6.03)

P = CO[C@@H](C)[C@@H](NC(=O)CC1CC(F)(F)C1)c1cnn2cc([C@@H](NC(=O)c3nonc3C)C3CCC(F)(F)CC3)nc2c1
Q = [2H]C([2H])([2H])C([2H])([2H])n1nccc1C(=O)N[C@H](c1cn2ncc(C(COC)NC(=O)CC3CC(F)(F)C3)cc2n1)C1CCC(F)(F)CC1 (single isomer, unassigned) [Example 523]
R = CCc1nocc1C(=O)N[C@H](c1cn2ncc([C@H](NC(=O)CCC(F)(F)F)C3CC3)cc2n1)C1CCC(F)(F)CC1
Sort the molecules on pIC50; start with the lowest figure. Give your ranking as a list of the labels in the requested order.
Q, P, R
(Q: 6.57, P: 6.92, R: 7.48)

I = O=C(CCC(F)(F)F)N[C@@H](c1cnn2cc([C@@H](NC(=O)c3cncc(C(F)F)c3)C3CCC(F)(F)CC3)nc2c1)C1CC1
II = O=C(CCC(F)(F)F)N[C@@H](c1cnn2cc([C@@H](NC(=O)c3nonc3OCC(F)(F)F)C3CCC(F)(F)CC3)nc2c1)C1CC1
When the recorded pIC50 values are compared, which is smaller: that of I or that of II ? Choose, then provide that item's label.
I
(I: 6.89, II: 7.29)

a = CC(C)n1nccc1C(=O)N[C@@H](COC(C)(C)C)c1cn2ncc([C@H](NC(=O)CC3CC(F)(F)C3)C3CC3)cc2n1
b = O=C(CC1CC(F)(F)C1)N[C@@H](c1cnn2cc([C@@H](NC(=O)c3conc3OCC(F)F)C3CCC(F)(F)CC3)nc2c1)C1CC1
When the recorded pIC50 values are compared, which is smaller: that of a or that of b ? Choose, then provide that item's label.
a
(a: 6.57, b: 6.80)
